# Test system: DNA
# method notes: Binding affinity to calf thymus DNA assessed as change in thermal stability at pH 7.0 after 18 hrs by thermal denaturation assay
# Type: nucleic-acid assay
# condition info: Bos taurus
With a cut-off of 7 °C, any ΔTm strictly below it is called Satisfied; any ΔTm meeting it or above is called Not satisfied.

compound structure string	tested target	discrete label
COc1cc2c(cc1O)N=C[C@@H]1CCCN1C2=O	DNA	Satisfied
CCOP(=O)(CCCOc1cc2c(cc1OC)C(=O)N1CCC[C@H]1C=N2)OCC	DNA	Satisfied
CCOP(=O)(CCCN1CCN(CCCOc2cc3c(cc2OC)C(=O)N2CCC[C@H]2C=N3)CC1)OCC	DNA	Not satisfied

Below: the item to evaluate.
Query :: Quick check: does CCOP(=O)(CCN1CCN(CCCOc2cc3c(cc2OC)C(=O)N2CCC[C@H]2C=N3)CC1)OCC have ΔTm under 7 °C?
Result :: Not satisfied
